Target: T1, ZFP SBS#694 (synthetic)
T1 chain: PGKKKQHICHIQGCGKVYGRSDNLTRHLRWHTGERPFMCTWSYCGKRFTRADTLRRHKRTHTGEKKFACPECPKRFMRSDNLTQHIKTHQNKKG
Experiment: EMSA
Details: tags: MBP fusion
READOUT_TYPE: Kd (nM)
Express your answer in nM, writing the number without its unit.

Per the records, this binder ( AAGGCGGAGA (dsDNA) DNA 1: AAGGCGGAGA DNA 2: TCTCCGCCTT ) has Kd equal to 28.5

Entry source: patent US20030068675
